assay: NCI Yeast Anticancer Drug Screen. Data for the cln2 rad14 strain (AID 165);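 further: 0% = growth equal to vehicle treated cultures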; conditions: S. cerevisiae cln2 rad14 strain, hits give high values; at 50.0 µM unless noted
Compounds without any hit were thinned out: in the full panel of roughly 79,000, 15% have a hit.

Compound: NC(=O)C(=CN1CC(=O)NC1=S)C(N)=O
growth inhibition, %: 9.85
--
Compound: O=C(O)/C=C/c1cccc(F)c1
growth inhibition, %: -15.9
--
Compound: CC(=O)C[n+]1ccccc1
growth inhibition, %: 3.75
--
Compound: COc1cc2c(cc1C(C)c1ccc(Cl)cc1)OCO2 (stereo unspecified)
growth inhibition, %: 21
--
Compound: NC(=O)C(c1ccccc1)C1(O)CCCCC1 (stereo unspecified)
growth inhibition, %: 6.95
--
Compound: Cc1ccc2c(c1)C(C(=O)N[C@@H]1C(=O)N3[C@@H]1SC(C)(C)[C@@H]3C(=O)O)OCCC2 (stereo partly specified)
growth inhibition, %: 2.45
